# Tested on: CAKI-1 renal
# test method notes: NCI-60 one-dose screen, 48 h
# settings: 10 µM
# Experimental: Growth inhibition of the CAKI-1 human tumor cell line is measured as a screen for anti-cancer activity. Cells are grown in 96 well plates and exposed to the test compound for 48 hours. Compounds are tested at a single concentration, which is 10^-5 M for most compounds. The reported endpoint is percent growth (GI% or GIPRCNT), where numbers from 0 - 100% represent growth inhibition, and numbers from -100% - 0 represent cell death. For example, a value of 40 represents 60% growth inhibition. […]
The panel holds about 83,000 compounds, 20% with a hit somewhere; the sample as a whole holds those more often. Activity calls are given as the source filed them. Rule for the calls: active = growth percent below 10; inactive = the rest.
Possible outcomes: active, inactive

{"molecule": "COc1cc(-c2c(C#N)c(N)n3c(nc4ccccc43)c2C#N)cc(Br)c1OC", "cat": "inactive"}
{"molecule": "N/C(=N\\O)c1cn(C2OC(CO)C(O)C2O)c2ncnc(N)c12 (stereo not given)", "cat": "active"}
{"molecule": "Cc1ccc(-n2c(-c3cc4c([nH]c5ccccc54)c(-c4cccc(O)c4)n3)n[nH]c2=S)cc1", "cat": "active"}
{"molecule": "COc1cc(C2C=C(c3ccc(Cl)c(Cl)c3)N=C3SC(C)=CN32)cc(OC)c1OC (stereo not given)", "cat": "inactive"}
{"molecule": "N=C(N)c1ccc(-c2ccc(-c3ccccc3)s2)cc1F", "cat": "active"}

Each recorded value in this set is attributed to PubChem BioAssay (NCI).
